Attribution: ChEMBL document CHEMBL4689842

tested on: Fibroblast; assay: Multiplex assay against human fibroblast; format: toxicity, cell-based; settings: 48 h, 1 µM, compound concentration 1 uM, replicate 1
// reported Population Membrane Permeable-Phenotype (%) per item
Give the value, in units of %, as a plain number.

CC(C)[C@H](CO)Nc1nc(Nc2cccc(Cl)c2)c2ncn(C(C)C)c2n1 [PURVALANOLA] : 23

Proceeding to the next compound to report its Population Membrane Permeable-Phenotype (%).
I'd like to know its Population Membrane Permeable-Phenotype (%). The compound in question is CC(Cc1ccc(O)c(O)c1)C(C)Cc1ccc(O)c(O)c1 (stereo not given) [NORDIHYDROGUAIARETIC ACID]
25

---

system: U2OS; assay: Multiplex assay against U2OS; type: toxicity, cell-based; settings: human, 12 h, 10 µM, compound concentration 10 uM, replicate 2
The reader will find reported Population Hoechst High Intensity Objects (%) values listed item by item below.
Quick note: unit goes after the number.

Examples with their reported Population Hoechst High Intensity Objects (%) follow.
CN1C(=O)[C@@H](NC(=O)c2cc3ccccc3[nH]2)N=C(c2ccccc2)c2ccccc21 [DEVAZEPIDE] : 7%
CCOc1ccn(-c2ccc(F)cc2)c(=O)c1C(=O)Nc1ccc(Oc2ccnc(N)c2Cl)c(F)c1 : 16%
CC[C@H](Nc1ncnc2[nH]cnc12)c1nc2cccc(F)c2c(=O)n1-c1ccccc1 : 16%

As a next step, examine the compound that follows.
Param readout = Population Hoechst High Intensity Objects (%); param system = U2OS; param query = Cl.Cn1c2c(c3ccc(Cl)c(Cl)c31)C(C#N)C1(CCNCC1)NC2=O (centres undefined) ; response: value
24%

---

system: U2OS; assay: Multiplex assay against U2OS; assay type: toxicity, cell-based; conditions: human, 12 h, 1 µM, compound concentration 1 uM, replicate 1
Metric Name: Population Healthy Nuclei (%)
Use % as the unit, but write only the number.

Some solved cases for reference:
CN(c1cc(C(F)(F)F)nc(OCCC(=O)O)n1)c1cccc2c1CCC2 : 64
CCCc1cc(C)[nH]c(=O)c1CNC(=O)c1cc(-c2ccc(N3CCN(C(C)C)CC3)nc2)cc2c1cnn2C(C)C : 53
CC(C)C[C@H](NC(=O)[C@H](Cc1ccccc1)NC(=O)CNC(=O)CNC(=O)[C@@H](N)Cc1ccc(O)cc1)C(=O)O : 77

Item N#Cc1cccc(C(=O)Nc2cc(-c3ccccc3)nn2-c2ccccc2)c1 has what recorded Population Healthy Nuclei (%)?
73

Moving on to the next molecule: CC[C@H](Nc1ncnc2[nH]cnc12)c1nc2cccc(F)c2c(=O)n1-c1ccccc1
88

Also, Cc1ccc(S(=O)(=O)NC2c3ccccc3Oc3ccccc32)cc1 please.
77

---

tested on: Fibroblast; experiment: Multiplex assay against human fibroblast; format: toxicity, cell-based; details: 24 h, 1 µM, compound concentration 1 uM, replicate 2
molecules and their reported Population Fragmented Nuclei (%)
Just the number in %, nothing appended.

Below are worked cases with known answers.
CCCCCNC(=N)N/N=C/c1c[nH]c2ccc(OC)cc12.O=C(O)/C=C\C(=O)O [TEGASEROD MALEATE] : 10
Cl.NC[C@@H]1O[C@H](C23CC4CC(CC(C4)C2)C3)Cc2c1ccc(O)c2O : 8
CC(Cc1ccc(O)c(O)c1)C(C)Cc1ccc(O)c(O)c1 (configuration not stated) [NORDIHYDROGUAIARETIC ACID] : 2

Need Population Fragmented Nuclei (%), item CC[C@@H]1C(=O)N(C)c2cnc(Nc3ccc(C(=O)NC4CCN(C)CC4)cc3OC)nc2N1C1CCCC1 [BI-2536]
59

Can you handle CN1C(=O)[C@@H](NC(=O)c2cc3ccccc3[nH]2)N=C(c2ccccc2)c2ccccc21 [DEVAZEPIDE] next?
7

Same again, this time with CCCCN(CC)c1nc(C)nc2c1c(C)cn2-c1c(C)cc(C)cc1C.Cl
13

Moving on to CC(/C=C1\SC(=S)N(CCCC(=O)Nc2ccc(C(=O)O)c(O)c2)C1=O)=C\c1ccccc1
12

// query: NC(=O)c1ccc2nc(-c3ccc(C4(N)CCC4)cc3)c(-c3ccccc3)n2n1 [BAY-1125976]
63

---

Each entry below carries its reported Population Mitochondria Different-Phenotype (%).
system: HEK-293T; test: Multiplex assay against HEK293T; format: toxicity, cell-based; conditions: human, 12 h, 1 µM, compound concentration 1 uM, replicate 1
The response must be a number in % with no trailing unit.

Cc1ccc(NC(=O)Nc2cc(C(F)(F)F)ccc2F)cc1Nc1ccc2c(c1)NC(=O)/C2=C\c1ccc[nH]1 : 0
CC(C)C[C@H](NC(=O)[C@H](Cc1ccccc1)NC(=O)CNC(=O)CNC(=O)[C@@H](N)Cc1ccc(O)cc1)C(=O)O [ENKEPHALIN] : 76
Cl.NC[C@@H]1O[C@H](C23CC4CC(CC(C4)C2)C3)Cc2c1ccc(O)c2O : 80

Here is another compound to look at.
Could you tell me which Population Mitochondria Different-Phenotype (%) is on file for CCOc1ccn(-c2ccc(F)cc2)c(=O)c1C(=O)Nc1ccc(Oc2ccnc(N)c2Cl)c(F)c1 [BMS-777607] ?
10

---

test system: Fibroblast; experiment: Multiplex assay against human fibroblast; type: toxicity, cell-based; details: 48 h, 1 µM, compound concentration 1 uM, replicate 2
Metric Name: Population Hoechst High Intensity Objects (%)
Write the answer as a number in %, unit excluded.

Here is how some molecules turned out for Population Hoechst High Intensity Objects (%).
CCCCN(CC)c1nc(C)nc2c1c(C)cn2-c1c(C)cc(C)cc1C.Cl : 6
Cc1c(P(=S)(c2ccccc2)c2ccccc2)n2ccccc2[n+]1C/C=C/c1ccccc1.[Br-] : 10
CN(c1cc(C(F)(F)F)nc(OCCC(=O)O)n1)c1cccc2c1CCC2 : 10
Oc1cccc(-c2nc(N3CCOCC3)c3oc4ncccc4c3n2)c1 [PI-103] : 14
N#CCNC(=O)c1ccc(-c2ccnc(Nc3ccc(N4CCOCC4)cc3)n2)cc1 [MOMELOTINIB] : 15
CC(C)c1cc(Nc2nc(N3CCC[C@H](N)C3)ncc2C(N)=O)cc(C(C)C)n1 : 33
CCCCCNC(=N)N/N=C/c1c[nH]c2ccc(OC)cc12.O=C(O)/C=C\C(=O)O [TEGASEROD MALEATE] : 18
Cc1ccc(S(=O)(=O)NC2c3ccccc3Oc3ccccc32)cc1 : 14

Fill in: Population Hoechst High Intensity Objects (%) of CC(Cc1ccc(O)c(O)c1)C(C)Cc1ccc(O)c(O)c1 (configuration not stated) [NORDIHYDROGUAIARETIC ACID] is ___
20

Another: Cl.NC[C@@H]1O[C@H](C23CC4CC(CC(C4)C2)C3)Cc2c1ccc(O)c2O
10

# iterate: CC(C)[C@H](CO)Nc1nc(Nc2cccc(Cl)c2)c2ncn(C(C)C)c2n1 [PURVALANOLA]
8

Try this molecule too: C[C@@H](Oc1cc(-n2cnc3ccc(CN4CCN(C)CC4)cc32)sc1C(N)=O)c1ccccc1C(F)(F)F [GSK-461364]
12

Record: CC(/C=C1\SC(=S)N(CCCC(=O)Nc2ccc(C(=O)O)c(O)c2)C1=O)=C\c1ccccc1
12

Item: CN1C(=O)[C@@H](NC(=O)c2cc3ccccc3[nH]2)N=C(c2ccccc2)c2ccccc21 [DEVAZEPIDE]
7

---

test system: U2OS; test: Incucyte cell viability with U2OS; assay type: toxicity, cell-based; details: human, 6 h, 10 µM, compound concentration 10 uM, replicate number 1, timepoint 6 hours; also: filed as whole numbers so only -1 and 0 and 1 occur
Each entry below carries its reported Growth Rate.

Answered cases to consult:
Cc1c(F)cccc1NC(=O)Nc1ccc(Cl)c(S(=O)(=O)[C@H]2CCCNC2)c1O : 0
COc1cc(N2CCC(O)CC2)ccc1Nc1cc(Nc2ccccc2S(=O)(=O)C(C)C)c2cc[nH]c2n1 : 1
c1ccc(-c2oc3ncnc(NC[C@@H]4CCCO4)c3c2-c2ccccc2)cc1 : 1
CC[C@@H]1C(=O)N(C)c2cnc(Nc3ccc(C(=O)NC4CCN(C)CC4)cc3OC)nc2N1C1CCCC1 : 0
COc1cc(Nc2ccnc3ccc(Br)cc23)cc(OC)c1OC : 0

Let us move to another entry and its Growth Rate.
Param item = CS(=O)(=O)N1CCCC(NC(=O)[C@H](CCC2CCCCC2)NC(=O)c2ccc(CNC(=O)c3cnc4ccccn34)cc2)C1 (stereo partly specified) ; retrieve measured Growth Rate.
1

---

tested on: U2OS; assay: Multiplex assay against U2OS; assay type: toxicity, cell-based; conditions: human, 12 h, 10 µM, compound concentration 10 uM, replicate 1
Population Fragmented Nuclei (%): recorded values

Solved entries (count: 8):
CC(C)[C@H](CO)Nc1nc(Nc2cccc(Cl)c2)c2ncn(C(C)C)c2n1 [PURVALANOLA] : 23%
CC(Cc1ccc(O)c(O)c1)C(C)Cc1ccc(O)c(O)c1 (stereo unspecified) [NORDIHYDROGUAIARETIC ACID] : 19%
CN(c1cc(C(F)(F)F)nc(OCCC(=O)O)n1)c1cccc2c1CCC2 : 11%
Cc1ccc(NC(=O)Nc2cc(C(F)(F)F)ccc2F)cc1Nc1ccc2c(c1)NC(=O)/C2=C\c1ccc[nH]1 : 2%
Oc1cccc(-c2nc(N3CCOCC3)c3oc4ncccc4c3n2)c1 [PI-103] : 20%
CC[C@@]1(O)C(=O)OCc2c1cc1n(c2=O)Cc2cc3ccccc3nc2-1 [CAMPTOTHECIN] : 13%
N#Cc1cccc(C(=O)Nc2cc(-c3ccccc3)nn2-c2ccccc2)c1 : 14%
Cl.Cn1c2c(c3ccc(Cl)c(Cl)c31)C(C#N)C1(CCNCC1)NC2=O (stereo unspecified) : 20%

# query: Population Fragmented Nuclei (%) of entry CC[C@H](Nc1ncnc2[nH]cnc12)c1nc2cccc(F)c2c(=O)n1-c1ccccc1 [IDELALISIB]
5%

Continue with C=CC(=O)Nc1cc(-n2c(=O)ccc3cnc4ccc(-c5ccc(NS(C)(=O)=O)cc5)cc4c32)ccc1C
19%

Item: CCCCN(CC)c1nc(C)nc2c1c(C)cn2-c1c(C)cc(C)cc1C.Cl
17%

Next entry: CN1C(=O)[C@@H](NC(=O)c2cc3ccccc3[nH]2)N=C(c2ccccc2)c2ccccc21 [DEVAZEPIDE]
11%

Request: Cl.NC[C@@H]1O[C@H](C23CC4CC(CC(C4)C2)C3)Cc2c1ccc(O)c2O
31%

And then CCOc1ccn(-c2ccc(F)cc2)c(=O)c1C(=O)Nc1ccc(Oc2ccnc(N)c2Cl)c(F)c1 [BMS-777607] , what is it?
2%

Another compound to check: Cc1ccc(S(=O)(=O)NC2c3ccccc3Oc3ccccc32)cc1
84%

Also CCCc1cc(C)[nH]c(=O)c1CNC(=O)c1cc(-c2ccc(N3CCN(C(C)C)CC3)nc2)cc2c1cnn2C(C)C , if possible.
24%
